- MEASURED_ON: MAST2, Q6P0Q8
- Sequence (Q6P0Q8 1099-1202): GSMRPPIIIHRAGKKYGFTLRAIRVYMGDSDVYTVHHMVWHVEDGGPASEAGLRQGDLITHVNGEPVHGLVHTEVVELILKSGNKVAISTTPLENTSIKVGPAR
- EXPERIMENTAL_DETAILS: holdup assay
- Parameters: key: below the threshold = too weak to quantify, mostly under pKd 3.1 to 4
- STUDY_CONDITIONS: plain residues with an end cap or a label only (N-terminal biotin on a linker: ado-ado)
OBSERVED_PROPERTY: pKd

INSERT INTO results (binder, test_value) VALUES
  ('EIPAQSPTCV [FZD10, Q9ULW2]', 4.01),
  ('EKCGKEFSEF [PRKACA, P17612]', 5.08),
  ('RQKEVRESKC [SCN8A, Q9UQD0]', 4.82),
  ('RFQQRMQTHV [KIRREL1, Q96J84]', 5.73),
  ('ARGPPRESEV [FAM110D, Q8TAY7]', 4.89);
